Hello, the source for this data is paper PMC11144275, in case you need it.

# Tested on: EBOV-Makona
# protocol details: microbe, parasite or virus in culture
# Type: cell-based, Ebola virus
# test parameters: Zaire ebolavirus, Huh-7, read-out: EC50 EBOV-Makona
pEC50: −log10 of the molar value.
measured property: pEC50

CCC(CC)COC(=O)[C@H](C)N[P@](=O)(OC[C@H]1O[C@@](C#N)(c2ccc3c(N)ncnn23)[C@H](O)[C@@H]1O)Oc1ccccc1 : 7.92

----------
# Test system: Huh-7 cells
Counter-ions that a name gives are not always drawn.
CC50 listing for selected compounds.
measured property: CC50

NCC(=O)Nc1ccc(-n2nc(C(F)(F)F)cc2-c2ccc3c(ccc4ccccc43)c2)cc1 : 3·67 (0·14) μM
COc1c(C)c2c(c(O)c1C/C=C(\C)CCC(=O)OCCN1CCOCC1)C(=O)OC2 [Mycophenolate mofetil] : 14·2 (4·3) μM
CCN(CC)CCOc1ccc(C(=C(Cl)c2ccccc2)c2ccccc2)cc1 [Clomifene citrate] : 8·43 (1·08) μM
CCC(CC)COC(=O)[C@H](C)N[P@](=O)(OC[C@H]1O[C@@](C#N)(c2ccc3c(N)ncnn23)[C@H](O)[C@@H]1O)Oc1ccccc1 : 3·63 (2·88) μM
CC/C(=C(\c1ccccc1)c1ccc(OCCN(C)C)cc1)c1ccccc1 : 16·29 (12·05) μM

----------
# System: EBOV-Ituri
# protocol details: microbe, parasite or virus in culture
# Format: cell-based, Ebola virus
Structures can show the parent of a compound that is named as a salt.
Below: a set of entries, each annotated with reported EBOV-Ituri Selectivity index.
measured property: EBOV-Ituri Selectivity index

COc1c(C)c2c(c(O)c1C/C=C(\C)CCC(=O)OCCN1CCOCC1)C(=O)OC2 [Mycophenolate mofetil] : 89
CN(C)CCOc1ccc(/C(=C(/CCCl)c2ccccc2)c2ccccc2)cc1 [Toremifene citrate] : >625
Nc1ccn([C@@H]2O[C@H](CO)[C@@H](O)[C@H]2F)c(=O)n1 : >14
NC(=O)c1ncn([C@@H]2O[C@H](CO)[C@@H](O)[C@H]2O)n1 : >3
